Items are presented alongside their recorded IC50.
# study target: human recombinant P2X7 receptors (Homo sapiens, UniProt Q99572)
# Construct: expressed in transfected cells
# Sequence (Q99572 1-595): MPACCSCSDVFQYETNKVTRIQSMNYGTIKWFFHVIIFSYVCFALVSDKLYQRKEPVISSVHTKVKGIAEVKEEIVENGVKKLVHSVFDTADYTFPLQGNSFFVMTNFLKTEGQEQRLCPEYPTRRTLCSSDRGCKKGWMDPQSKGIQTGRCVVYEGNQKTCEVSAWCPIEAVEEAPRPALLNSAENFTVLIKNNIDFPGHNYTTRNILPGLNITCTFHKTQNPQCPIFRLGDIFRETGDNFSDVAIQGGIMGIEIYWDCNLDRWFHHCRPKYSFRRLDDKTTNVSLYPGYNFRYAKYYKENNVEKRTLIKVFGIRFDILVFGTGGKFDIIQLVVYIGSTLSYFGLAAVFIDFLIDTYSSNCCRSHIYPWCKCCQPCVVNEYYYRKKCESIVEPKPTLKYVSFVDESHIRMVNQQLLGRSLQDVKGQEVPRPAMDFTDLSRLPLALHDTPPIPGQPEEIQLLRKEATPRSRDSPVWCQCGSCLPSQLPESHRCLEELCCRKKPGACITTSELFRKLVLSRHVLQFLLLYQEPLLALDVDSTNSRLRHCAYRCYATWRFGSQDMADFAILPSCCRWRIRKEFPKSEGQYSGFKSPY
# assay notes: Ethidium Accumulation Assay 1
# Assay type: cell-based
# test conditions: HEK293 cells stably expressing human recombinant P2X7; 1 mM ATP; ethidium 100 μM; read-out: Assay 1 (antagonist pIC50 for blocking ATP responses, ethidium accumulation) (converted)
# Experimental: Studies were performed using NaCl assay buffer of the following composition: 140 mM NaCl, 10 mM HEPES [4-(2-hydroxyethyl)-1-piperazine-1-ethanesulfonic acid], 5 mM N-methyl-D-glucamine, 5.6 mM KCl, 10 mM D-glucose, 0.5 mM CaCl2 (pH 7.4). Human Embryonic Kidney (HEK) 293 cells, stably expressing human recombinant P2X7 receptors, were grown in poly-D-lysine pretreated 96 well plates for 18-24 hours. […]
Structures can show the parent of a compound that is named as a salt.

| compound | IC50 |
| --- | --- |
| O=C(c1cccc(C(F)(F)F)c1Cl)N1CCn2c(-c3cccnc3)cnc2C1 | < 10 nM |

Please report the measured IC50 for O=C(c1ccc(Cl)cc1Cl)N1CCn2c(nc(Cl)c2Cl)C1
< 100 nM

Please report the measured IC50 for O=C(c1cccc(C(F)(F)F)c1Cl)N1CCn2cc(-c3ccccc3)nc2C1 [Example 14, hydrochloride]
< 501 nM

Please report the measured IC50 for O=C(c1cccc(C(F)(F)F)c1Cl)N1CCn2c(nc(C(F)(F)F)c2Br)C1
< 10 nM

Please report the measured IC50 for O=C(c1cccc(C(F)(F)F)c1Cl)N1CCn2ccnc2C1
< 100 nM

Please report the measured IC50 for O=C(c1cccc(C(F)(F)F)c1Cl)N1CCn2c(-c3ccc(Cl)cc3)cnc2C1 [Example 25, hydrochloride]
< 501 nM

Please report the measured IC50 for O=C(c1cccc(C(F)(F)F)c1Cl)N1CCn2c(nc(I)c2I)C1
< 10 nM

Please report the measured IC50 for O=C(c1cccc(C(F)(F)F)c1Cl)N1CCn2c(-c3cccc(C(F)(F)F)c3Cl)cnc2C1 [Example 24, hydrochloride]
< 1000 nM

Please report the measured IC50 for O=C(c1ccccc1Cl)N1CCn2c(-c3ccccc3)cnc2C1 [Example 8, hydrochloride]
< 100 nM

Please report the measured IC50 for Cc1cnc2n1CCN(C(=O)c1cccc(C(F)(F)F)c1Cl)C2 [Example 27, hydrochloride]
< 100 nM

Source: patent US8513248B2
